These data points were gathered from ChEMBL document CHEMBL1133217.

Experiment: Partition coefficient (logP)
Assay type: physicochemical
Details: octanol/water
endpoint_name: logP

Sample CCCCCCCOC(C)c1c(C)c2cc3[nH]c(cc4nc(c5c6nc(cc1[nH]2)C(C)=C6C(=O)N(CCCCCC)C5=O)[C@@H](CCC(=O)OC)[C@@H]4C)c(C)c3CC (stereo not given in full) — what was its logP? 10.83

Which logP is reported for this compound? "CCCCCCCCOCC1=C(C)c2cc3nc(c4c5[nH]c(cc6[nH]c(cc1n2)c(C)c6CC)c(C)c5C(=O)N(CCCCCC)C4=O)[C@@H](CCC(=O)OC)[C@@H]3C" 10.8

# input compound: CCCCCCCOC(C)C1=C(C)c2cc3nc(c4c5[nH]c(cc6[nH]c(cc1n2)c(C)c6CC)c(C)c5C(=O)N(CCCCCC)C4=O)[C@@H](CCC(=O)OC)[C@@H]3C (stereo not given in full) ; wanted: its logP 10.83

# query: logP of entry "CCCCCCCOCc1c2nc(c3c4nc(cc5[nH]c(cc6[nH]c1c(C)c6CC)c(C)c5CC)C(C)=C4C(=O)N(CCCCCC)C3=O)[C@@H](CCC(=O)OC)[C@@H]2C" 10.78

Any idea what its logP is? The compound is "CCCCCCCCCCN1C(=O)c2c3nc(cc4nc(cc5[nH]c(cc6[nH]c2c(c6C)C1=O)c(CC)c5C)C(CC)=C4C)[C@@H](C)[C@@H]3CCC(=O)OC" 10.62
